Biological target: PTGER2 (EP2) (Homo sapiens (Human), UniProt P43116)
Sequence (P43116 whole entry): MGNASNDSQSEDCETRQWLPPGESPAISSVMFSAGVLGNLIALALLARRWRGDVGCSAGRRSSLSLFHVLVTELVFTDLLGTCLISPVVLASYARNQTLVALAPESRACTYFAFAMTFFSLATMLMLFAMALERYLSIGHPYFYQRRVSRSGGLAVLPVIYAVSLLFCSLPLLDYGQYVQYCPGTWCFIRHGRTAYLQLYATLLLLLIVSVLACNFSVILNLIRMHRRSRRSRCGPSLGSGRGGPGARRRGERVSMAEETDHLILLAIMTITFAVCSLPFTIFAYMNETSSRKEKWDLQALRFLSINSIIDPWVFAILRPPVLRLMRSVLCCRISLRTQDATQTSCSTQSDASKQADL
Assay: hEP2 b-arrestin assay (PathHunter HEK 293 PTGER2 b-arrestin cells)
Format: cell-based
Conditions: hEP2 b-arrestin assay (values without asterisk)
Kindly apply the following: YES if IC50 is less than 8 nM, NO in every other case.

{"columns": ["Smiles record", "Class"],
 "data": [
  ["COc1ccc(F)c2c1cc(C#N)n2CCNc1cc(-c2ccc(-c3c(O)c(=O)c3=O)cc2)ncn1", "NO"],
  ["COCCOc1ccc(-c2cc(NCCn3c(C#N)cc4c(OC)ccc(F)c43)ncn2)cc1", "NO"],
  ["CCOc1cc(-c2cc(NCCn3c(C)cc4c(Cl)cc(Cl)c(F)c43)ncn2)sc1C(=O)O", "YES"],
  ["COc1nc(-c2cc(NCCn3c(C)cc4c(OC)ccc(F)c43)ncn2)sc1C(=O)O", "YES"],
  ["CCOc1cc(-c2cc(NCCn3c(C#N)cc4c(OC)ccc(F)c43)ncn2)ccc1S(N)(=O)=O", "NO"],
  ["CCOc1cc(-c2cc(NCCn3c(C#N)cc4c(OC)cccc43)ncn2)sc1C(=O)O", "YES"],
  ["CCOc1cc(-c2cc(NCCn3c(C)cc4c(OC)cc(Cl)c(F)c43)ncn2)sc1C(=O)O", "YES"],
  ["Cc1ccc(F)c2c1cc(C#N)n2CCNc1cc(-c2cc(C(F)(F)F)c(C(=O)O)s2)ncn1", "NO"]
]}

Please check: IC50 for CCOc1cc(-c2cc(NCCn3c(C)c(F)c4c(OC)ccc(F)c43)ncn2)sc1C(=O)O , strictly under 8 nM or not?
YES

Please check: IC50 for COc1cc(F)cc2c1cc(C#N)n2CCNc1cc(-c2ccc(C(=O)O)c(SC(C)C)c2)ncn1 , strictly under 8 nM or not?
NO

Please check: IC50 for CCNc1csc(-c2cc(NCCn3c(C)cc4c(C)cc(F)cc43)ncn2)c1 , strictly under 8 nM or not?
NO

Please check: IC50 for COc1cc(-c2cc(NCCn3c(C)cc4c(OC)ccc(F)c43)ncn2)ccc1CC(=O)O , strictly under 8 nM or not?
NO

Please check: IC50 for CCOc1cc(-c2cc(NCCn3c(C#N)cc4c(C)cc(F)c(F)c43)ncn2)ccc1C(=O)O , strictly under 8 nM or not?
NO

====

Reported pIC50 values, EP2 (Homo sapiens (Human)).
# pIC50: negative log10 of molar concentration; output just the value

Answered cases to consult:
{"columns": ["Molecule", "Assay result"],
 "data": [
  ["CCOc1cc(-c2cc(NCCn3c(C)cc4c(C)cc(F)cc43)ncn2)cc(F)c1-c1nnn[nH]1 [compound 660]", 7.80],
  ["CCOc1cc(-c2cc(NCCn3c(C)cc4c(C)cc(F)c(F)c43)ncn2)ccc1C(=O)O [compound 431]", 7.29],
  ["CCCOc1cc(-c2cc(NCCn3c(C)cc4c(OC)cc(F)cc43)ncn2)sc1C(=O)O [compound 674]", 8.70]
]}

Please look at the following molecule next.
For record CCNc1cc(-c2cc(NCCn3c(C)cc4ccccc43)ncn2)ccc1-c1nnn[nH]1 [compound 671] the listed pIC50 is 8.70

====

Reported IC50 values, EP2 (Homo sapiens (Human), UniProt P43116).
I'd appreciate it if you included the unit after the number.

{"columns": ["Molecule", "IC50"],
 "data": [
  ["Cc1cc(F)cc2c1cc(C)n2CCNc1cc(-c2cc(Cl)c(C(=O)O)c(OCC(F)(F)F)c2)ncn1 [compound 723]", "0.037 µM"],
  ["Cc1ccc(F)c2c1cc(C)n2CCNc1cc(-c2ccc(C(=O)O)c(Oc3ccc(F)cc3)c2)ncn1 [compound 650]", "0.093 µM"],
  ["COc1c(F)cc(Cl)c2c1cc(C)n2CCNc1cc(-c2ccc(C(=O)O)c(SC)c2)ncn1 [compound 448]", "0.046 µM"]
]}

Please look at the following molecule next.
Summary line: CCOc1cc(-c2cc(NCCn3c(C)cc4c(C)c(F)c(F)cc43)ncn2)ccc1C(=O)O [Example 787] , EP2 (Homo sapiens (Human), UniProt P43116), reported IC50 = 0.021 µM
